system: RBL-2H3; assay: Anti-allergic activity in rat RBL2H3 cells assessed as reduction in mouse anti-DNP IgE-induced TNF-alpha level preincubated for 15 mins followed by mouse anti-DNP IgE-stimulation and measured after 3 hrs by ELISA; format: functional, cell-based
Hi! Just check whether IC50 is below 30 µM. Below gives label 1, equal or above gives label 0.

Prompt: Please state whether IC50 is below 30 µM for C/C=C/C=C/C(O)=C1/C(=O)[C@@]2(C)[C@H]3\C(=C(O)/C=C/C=C/C)C(=O)[C@H]4[C@@H]1[C@]1(C)O[C@@]4(O)[C@@]3(C)O[C@@]12O
Response: label 1

Prompt: Please state whether IC50 is below 30 µM for C/C=C/C=C/C(=O)C1=C[C@@]2(C)[C@H]3C(C(=O)/C=C/C=C/C)=C(O)C(C)=C(O)[C@@]3(C)O[C@@]2(O)[C@@](C)(O)C1=O
Response: label 0

Prompt: Please state whether IC50 is below 30 µM for C/C=C/C=C/C(=O)C1=C[C@](C)(OC(C)=O)C(=O)C(C)=C1O
Response: label 0

Prompt: Please state whether IC50 is below 30 µM for C/C=C/C=C/C(=O)[C@]12C(=O)C(C)=C(O)[C@@](C)(O)[C@H]1[C@H]1\C(=C(O)/C=C/C=C/C)C(=O)[C@]2(C)C(=O)[C@@]1(C)O
Response: label 1
